test system: RS4:11 cells; assay: Cell viability assay (CellTiter-Glo), RS4:11; assay type: cell-based; conditions: Homo sapiens, RS4-11; 48 h treatment, CellTiter-Glo; small-molecule inhibitors, cells marked (nM)
# IC50 annotations
Answer format: numeric, nM implied, no suffix.

**Q:** Recorded IC50 of CC1(C)CCC(c2ccc(Cl)cc2)=C(CN2CCN(c3ccc(C(=O)NS(=O)(=O)c4ccc(N[C@H](CCN5CCOCC5)CSc5ccccc5)c(S(=O)(=O)C(F)(F)F)c4)cc3)CC2)C1 , please.
**A:** 0.4

**Q:** Recorded IC50 of CC1(C)CCC(CN2CCN(c3ccc(C(=O)NS(=O)(=O)c4ccc(NCC5CCOCC5)c([N+](=O)[O-])c4)c(Oc4cnc5[nH]ccc5c4)c3)CC2)=C(c2ccc(Cl)cc2)C1 , please.
**A:** 0.5

---

test system: A549 cells overexpressing BCL-2 G101V; assay: Cell viability assay, A549 stably overexpressing BCL-2 G101V; format: cell-based; details: Homo sapiens, A549; 48 h, CellTiter-Glo, n = 6
MEASURED_PARAMETER: IC50 (µM)
Answer format: numeric, µM implied, no suffix.

**Q:** Recorded IC50 of CC1(C)CCC(CN2CCN(c3ccc(C(=O)NS(=O)(=O)c4ccc(NCC5CCOCC5)c([N+](=O)[O-])c4)c(Oc4cnc5[nH]ccc5c4)c3)CC2)=C(c2ccc(Cl)cc2)C1 [venetoclax] , please.
**A:** 4.1
